- System: NF-kB p65 homodimer, murine (mouse, UniProt Q04207 19-306)
- Sequence (Q04207 19-306): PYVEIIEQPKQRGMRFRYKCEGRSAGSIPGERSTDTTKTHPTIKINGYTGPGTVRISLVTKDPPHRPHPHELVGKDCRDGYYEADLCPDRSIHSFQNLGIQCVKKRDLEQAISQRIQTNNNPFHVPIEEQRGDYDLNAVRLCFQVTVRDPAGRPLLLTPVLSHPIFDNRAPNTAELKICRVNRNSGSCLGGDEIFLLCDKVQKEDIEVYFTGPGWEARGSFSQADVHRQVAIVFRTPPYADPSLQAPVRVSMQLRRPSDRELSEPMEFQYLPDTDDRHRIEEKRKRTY
- Method summary: EMSA
pKd: −log10 of the molar value.

Binder	pKd
R1 anti-p65 RNA aptamer (structured_RNA) RNA: GAAGCUUACAAGAAGGACAGCACGAAUAAAACCUGCGUAAAUCCGCCCCAUUUGUGUAAGGGUAGUGGGUCGAAUUCCGCUCA	7.42

Entry source: paper PMC2764441
